- Target desc: DYRK2 (human)
- Assay text: KINOMEscan competition binding
- Condition description: compound 10.0 µM
Threshold 90%: kinase still bound, per cent of control strictly smaller gives 1 (yes), otherwise 0 (no).

{"Compound": "CCc1nc(-c2cccc(C)c2)c(-c2ccnc(NC(=O)c3ccccc3)c2)s1", "Qualitative label": "0 (no)"}
{"Compound": "N#Cc1cc(-c2ccnc(Nc3ccc(-n4cnc(-c5cccnc5)n4)cc3)n2)cc(N2CCOCC2)c1", "Qualitative label": "1 (yes)"}
{"Compound": "CCN(CCO)CCCOc1ccc2c(Nc3cc(CC(=O)Nc4cccc(F)c4)[nH]n3)ncnc2c1", "Qualitative label": "1 (yes)"}
{"Compound": "Cc1cn(-c2cc(C(=O)Nc3ccc(C)c(NC(=O)c4ccno4)c3)cc(C(F)(F)F)c2)cn1", "Qualitative label": "0 (no)"}
{"Compound": "CC1=C(C(=O)Nc2cc3cn[nH]c3cc2F)C(c2ccc(C(F)(F)F)cc2)CC(=O)N1 (centres undefined)", "Qualitative label": "0 (no)"}
{"Compound": "COc1cc2ncnc(Nc3cccc(Cl)c3)c2cc1OC", "Qualitative label": "1 (yes)"}

Query: Quick check: does C=CC(=O)Nc1ccc(C(=O)c2sc(Nc3ccc(N4CCN(C)CC4)cc3OC)nc2N)cc1 have kinase still bound, per cent of control under 90%?
Result: 1 (yes)

* * *

- Target desc: SRMS (human)
- Assay text: KINOMEscan competition binding
- Condition description: compound 10.0 µM
Measurement kind: kinase still bound, per cent of control

Your task in this section: give kinase still bound, per cent of control for each listed record.
1. COc1cc2ncnc(Nc3cccc(Cl)c3)c2cc1OC
2. CCN1CCN(Cc2ccc(NC(=O)c3ccc(C)c(/C=C/c4cnc5[nH]ccc5c4OC)c3)cc2C(F)(F)F)CC1
3. CC(=O)c1c(C)c2cnc(Nc3ccc(N4CCNCC4)cn3)nc2n(C2CCCC2)c1=O
4. N#Cc1cc(-c2ccnc(Nc3ccc(-n4cnc(-c5cccnc5)n4)cc3)n2)cc(N2CCOCC2)c1
5. CCCS(=O)(=O)Nc1ccc(F)c(C(=O)c2c[nH]c3ncc(Cl)cc23)c1F
6. Cc1cn(-c2cc(C(=O)Nc3ccc(C)c(NC(=O)c4ccno4)c3)cc(C(F)(F)F)c2)cn1

Result:
1. 60%
2. 0.7%
3. 49%
4. 62%
5. 0.05%
6. 26%

* * *

For each record, write down the corresponding kinase still bound, per cent of control.
- Target desc: UniProt:Q6PHR2
- Sequence (Q6PHR2 whole entry, looked up): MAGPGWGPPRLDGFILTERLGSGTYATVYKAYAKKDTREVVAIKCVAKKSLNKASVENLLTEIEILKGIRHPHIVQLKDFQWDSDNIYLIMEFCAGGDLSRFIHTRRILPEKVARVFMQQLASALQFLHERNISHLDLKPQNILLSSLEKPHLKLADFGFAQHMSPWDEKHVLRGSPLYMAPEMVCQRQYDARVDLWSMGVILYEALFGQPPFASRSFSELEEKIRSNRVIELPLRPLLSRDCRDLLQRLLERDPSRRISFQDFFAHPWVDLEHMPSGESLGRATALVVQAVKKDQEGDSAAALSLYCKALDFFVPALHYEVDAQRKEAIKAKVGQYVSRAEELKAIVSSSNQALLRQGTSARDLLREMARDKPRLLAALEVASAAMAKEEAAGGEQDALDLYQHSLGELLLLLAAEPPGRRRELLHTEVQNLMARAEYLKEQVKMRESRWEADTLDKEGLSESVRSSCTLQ
- Assay text: KINOMEscan competition binding
- Condition description: compound 10.0 µM
Give bare numbers, in %.

Example results:
{"Smiles code": "COc1cc2c(Nc3ccc(NC(=O)c4ccccc4)cc3)ncnc2cc1OCCCN1CCOCC1", "Target desc": "UniProt:Q6PHR2", "kinase still bound, per cent of control (%)": 7.3}
{"Smiles code": "N#Cc1cc(-c2ccnc(Nc3ccc(-n4cnc(-c5cccnc5)n4)cc3)n2)cc(N2CCOCC2)c1", "Target desc": "UniProt:Q6PHR2", "kinase still bound, per cent of control (%)": 6}
{"Smiles code": "CCN(CCO)CCCOc1ccc2c(Nc3cc(CC(=O)Nc4cccc(F)c4)[nH]n3)ncnc2c1", "Target desc": "UniProt:Q6PHR2", "kinase still bound, per cent of control (%)": 69}
{"Smiles code": "CC(=O)c1c(C)c2cnc(Nc3ccc(N4CCNCC4)cn3)nc2n(C2CCCC2)c1=O", "Target desc": "UniProt:Q6PHR2", "kinase still bound, per cent of control (%)": 40}
{"Smiles code": "Cc1cn(-c2cc(C(=O)Nc3ccc(C)c(NC(=O)c4ccno4)c3)cc(C(F)(F)F)c2)cn1", "Target desc": "UniProt:Q6PHR2", "kinase still bound, per cent of control (%)": 100}
{"Smiles code": "CCN1CCN(Cc2ccc(NC(=O)c3ccc(C)c(/C=C/c4cnc5[nH]ccc5c4OC)c3)cc2C(F)(F)F)CC1", "Target desc": "UniProt:Q6PHR2", "kinase still bound, per cent of control (%)": 1.5}
{"Smiles code": "CCc1nc(-c2cccc(C)c2)c(-c2ccnc(NC(=O)c3ccccc3)c2)s1", "Target desc": "UniProt:Q6PHR2", "kinase still bound, per cent of control (%)": 88}
{"Smiles code": "CCCS(=O)(=O)Nc1ccc(F)c(C(=O)c2c[nH]c3ncc(Cl)cc23)c1F", "Target desc": "UniProt:Q6PHR2", "kinase still bound, per cent of control (%)": 60}

Moving on to another molecule below.
Query: For the molecule COc1cc(N2CCC(C(N)=O)CC2)ccc1Nc1nc(N)c(Cl)c(Nc2ccccc2S(=O)(=O)C(C)C)n1 , what kinase still bound, per cent of control is on record?
Result: 100
